// data source = patent US9938230B2

- method: Thermal stability test of different metal salts, 2% premix with corncob powder at 100° C., HPLC
- Format: physicochemical
- assay.conditions: 2% premix, 100° C., 20 h
observable: Residual content at 100° C. for 20 h (%)
Note: a bare number is incomplete; add the unit.

Recall and state the measured Residual content at 100° C. for 20 h (%) for CCCc1cccc(=O)c(O)c1 [Manganese 7-oxo-3-propylcyclohepta-1,3,5-trienolate] . 1.99%

Recall and state the measured Residual content at 100° C. for 20 h (%) for "CCCc1cccc(=O)c([O-])c1.[Na+]" . 1.31%

Complete the entry with Residual content at 100° C. for 20 h (%) for "CCCc1cccc(=O)c([O-])c1.[K+]" 1.43%

Report Residual content at 100° C. for 20 h (%) for CCCc1cccc(=O)c(O)c1 [Calcium 7-oxo-3-propylcyclohepta-1,3,5-trienolate] 1.73%

###

Task for the reader: assign each of the following compounds its reported Residual content at 100° C. for 40 h (%).
- method: Thermal stability test of different metal salts, 2% premix with corncob powder at 100° C., HPLC
- Format: physicochemical
- assay.conditions: 2% premix, 100° C., 40 h
# value in %; strip the unit string

# return recorded Residual content at 100° C. for 40 h (%) for input "CCCc1cccc(=O)c([O-])c1.[Na+]" 1.11

Output measured Residual content at 100° C. for 40 h (%) for this item: "CCCc1cccc(=O)c([O-])c1.[K+]" 1.13

Item CCCc1cccc(=O)c(O)c1 [Calcium 7-oxo-3-propylcyclohepta-1,3,5-trienolate] : provide Residual content at 100° C. for 40 h (%) 1.67

# return recorded Residual content at 100° C. for 40 h (%) for input CCCc1cccc(=O)c(O)c1 [Manganese 7-oxo-3-propylcyclohepta-1,3,5-trienolate] 1.98

Fill in reported Residual content at 100° C. for 40 h (%) for this entry: CCCc1cccc(=O)c(O)c1 [Magnesium 7-oxo-3-propylcyclohepta-1,3,5-trienolate] 1.99

###

- method: Optical stability test of different metal salts, 2% premix, illumination at 4500-5000 lux for 5 days, HPLC
- Assay type: physicochemical
- assay.conditions: 2% premix, 4500-5000 lux, 5 days
Hi there, I'd appreciate the recorded Residual content of 5 days later (%) for every entry that follows.
Form entry: value (%) — number only.

Provide Residual content of 5 days later (%) value for the following compound: "CCCc1cccc(=O)c([O-])c1.[Na+]" 0.05

Note down Residual content of 5 days later (%) recorded for CCCc1cccc(=O)c(O)c1 [IST-009-001, reference compound] 0

For the compound CCCc1cccc(=O)c(O)c1 [Calcium 7-oxo-3-propylcyclohepta-1,3,5-trienolate] , give its measured Residual content of 5 days later (%) value. 0.89

Respond only with Residual content of 5 days later (%) recorded for CCCc1cccc(=O)c(O)c1 [Manganese 7-oxo-3-propylcyclohepta-1,3,5-trienolate] 1.96

# return recorded Residual content of 5 days later (%) for entry "CCCc1cccc(=O)c([O-])c1.[K+]" 0.17

Indicate the recorded Residual content of 5 days later (%) value for this compound: CCCc1cccc(=O)c(O)c1 [Magnesium 7-oxo-3-propylcyclohepta-1,3,5-trienolate] 1.52
